Entry source: patent US10906915B2

Listed here: items and their measured IC50.
biological target: human PDE4D catalytic domain (UniProt no. Q08499) (Homo sapiens (Human), UniProt Q08499); assay: PDE4 assay (TR-FRET, FAM-cAMP cleavage); assay type: biochemical; settings: human PDE4D catalytic domain; molar concentration giving 50% inhibition of substrate cleavage; read-out: PDE4 IC50 range
Sequence (Q08499 380-740 limits assumed): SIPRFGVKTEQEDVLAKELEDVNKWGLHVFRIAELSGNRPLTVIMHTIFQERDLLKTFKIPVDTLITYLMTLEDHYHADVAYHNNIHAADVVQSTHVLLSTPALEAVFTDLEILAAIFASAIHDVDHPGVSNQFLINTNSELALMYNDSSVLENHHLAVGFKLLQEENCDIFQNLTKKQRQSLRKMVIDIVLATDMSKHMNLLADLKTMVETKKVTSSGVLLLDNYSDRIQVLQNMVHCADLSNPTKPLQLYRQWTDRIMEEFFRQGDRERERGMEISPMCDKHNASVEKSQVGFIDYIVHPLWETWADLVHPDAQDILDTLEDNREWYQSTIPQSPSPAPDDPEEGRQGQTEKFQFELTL
observed property: IC50

{"columns": ["smiles structure", "recorded measurement"],
 "data": [
  ["CCc1nn(CCCOC(=O)c2ccc(C(=O)NC(C)C)cc2)c2c1C(=O)NCC1(CCOCC1)C2", "< 100 nM"],
  ["CCc1nn(C[C@@H](C)COC(=O)c2ccc(F)cc2)c2c1C(=O)NCC1(CCOCC1)C2", "< 100 nM"],
  ["CCc1nn(C[C@@H](C)COC(=O)C(C)C)c2c1C(=O)NCC1(CCOCC1)C2", "< 100 nM"],
  ["CCc1nn(C[C@@H](C)COC(=O)c2cccc(S(=O)(=O)CC)c2)c2c1C(=O)NCC1(CCOCC1)C2", "< 100 nM"],
  ["CCc1nn(CCCOC(=O)C2CC(F)(F)C2)c2c1C(=O)NCC1(CCOCC1)C2", "100 to 500 nM"],
  ["CCc1nn(C[C@@H](C)COC(=O)c2ccc(C(N)=O)cc2)c2c1C(=O)NCC1(CCOCC1)C2", "< 100 nM"],
  ["CCc1nn(CCCOC(=O)c2cccc(Cl)c2OC)c2c1C(=O)NCC1(CCOCC1)C2", "< 100 nM"],
  ["CCc1nn(C[C@@H](C)COC(=O)c2ccc(F)c(C(F)(F)F)c2)c2c1C(=O)NCC1(CCOCC1)C2", "< 100 nM"],
  ["CCc1nn(C[C@@H](C)COC(=O)c2ccc(OC)c(F)c2)c2c1C(=O)NCC1(CCOCC1)C2", "< 100 nM"],
  ["CCc1nn(CCCOC(=O)c2cccc(S(=O)(=O)C(C)C)c2)c2c1C(=O)NCC1(CCOCC1)C2", "< 100 nM"],
  ["CCc1nn(C[C@@H](C)COC(=O)c2cccc(S(=O)(=O)N3CCOCC3)c2)c2c1C(=O)NCC1(CCOCC1)C2", "< 100 nM"],
  ["CCc1nn(C[C@@H](C)COC(=O)c2cccc(C(F)(F)F)c2Cl)c2c1C(=O)NCC1(CCOCC1)C2", "< 100 nM"],
  ["CCc1nn(CCCOC(=O)c2ccccc2C(F)(F)F)c2c1C(=O)NCC1(CCOCC1)C2", "< 100 nM"],
  ["CCc1nn(CCCOC(=O)c2c(F)cccc2C(F)(F)F)c2c1C(=O)NCC1(CCOCC1)C2", "< 100 nM"],
  ["CCc1nn(CCCOC(=O)c2ccc(S(=O)(=O)C3CCCC3)cc2)c2c1C(=O)NCC1(CCOCC1)C2", "100 to 500 nM"]
]}

----------
target: human PDE4D catalytic domain (UniProt no. Q08499) (Homo sapiens (Human), UniProt Q08499); assay: PDE4 assay (TR-FRET, FAM-cAMP cleavage); type: biochemical; conditions: read-out: PDE4 IC50 range

{"columns": ["smiles structure", "IC50"],
 "data": [
  ["CCc1nn(CC(C)(C)COC(=O)c2cccc(C(=O)N3CCN(C)CC3)c2)c2c1C(=O)NCC1(CCOCC1)C2", "< 0.1 µM"],
  ["CCc1nn(CC2(COC(=O)c3ccc(Cl)cc3)COC2)c2c1C(=O)NCC1(CCOCC1)C2", "< 0.1 µM"],
  ["CCc1nn(CC2(COC(=O)c3ccccc3)COC2)c2c1C(=O)NCC1(CCOCC1)C2", "< 0.1 µM"],
  ["CCc1nn(CC(C)(C)COC(=O)c2cccc(S(N)(=O)=O)c2)c2c1C(=O)NCC1(CCOCC1)C2", "< 0.1 µM"],
  ["CCc1nn(CC(C)(C)COC(=O)c2c(F)cccc2Cl)c2c1C(=O)NCC1(CCOCC1)C2", "< 0.1 µM"],
  ["CCc1nn(CCCCOC(=O)c2ccc(S(=O)(=O)NC)cc2)c2c1C(=O)NCC1(CCOCC1)C2", "0.1 to 0.5 µM"],
  ["CCc1nn(CCCCOC(=O)c2ccc(C(=O)N(C)C)cc2)c2c1C(=O)NCC1(CCOCC1)C2", "0.1 to 0.5 µM"],
  ["CCc1nn(CC(C)(C)COC(=O)c2ccc(C(N)=O)cc2)c2c1C(=O)NCC1(CCOCC1)C2", "< 0.1 µM"],
  ["CCc1nn(CC(C)(C)COC(=O)c2cccc(S(=O)(=O)C(C)C)c2)c2c1C(=O)NCC1(CCOCC1)C2", "< 0.1 µM"],
  ["CCc1nn(C[C@@H](C)COC(=O)c2cccc(C(=O)N3CCCC3)c2)c2c1C(=O)NCC1(CCOCC1)C2", "< 0.1 µM"],
  ["CCc1nn(CC(C)(C)COC(=O)c2cccc(Cl)c2)c2c1C(=O)NCC1(CCOCC1)C2", "< 0.1 µM"],
  ["CCc1nn(CC(C)(C)COC(=O)c2ccc(F)cc2)c2c1C(=O)NCC1(CCOCC1)C2", "< 0.1 µM"],
  ["CCc1nn(CCCCOC(=O)c2cccc(S(C)(=O)=O)c2)c2c1C(=O)NCC1(CCOCC1)C2", "0.1 to 0.5 µM"],
  ["CCc1nn(C[C@H](C)COC(=O)c2ccc(Cl)cc2)c2c1C(=O)NCC1(CCOCC1)C2", "< 0.1 µM"],
  ["CCc1nn(CC(C)(C)COC(=O)c2cccc(C(=O)N3CCCC3)c2)c2c1C(=O)NCC1(CCOCC1)C2", "< 0.1 µM"],
  ["CCc1nn(CC(C)(C)COC(=O)c2cccc(C(=O)N(C)C)c2)c2c1C(=O)NCC1(CCOCC1)C2", "< 0.1 µM"],
  ["CCc1nn(CC(C)(C)COC(=O)c2cccc(C(=O)NC)c2)c2c1C(=O)NCC1(CCOCC1)C2", "< 0.1 µM"],
  ["CCc1nn(CC(C)(C)COC(=O)c2cccc(S(C)(=O)=O)c2)c2c1C(=O)NCC1(CCOCC1)C2", "< 0.1 µM"],
  ["CCc1nn(CCCCOC(=O)c2ccc(C(C)=O)cc2)c2c1C(=O)NCC1(CCOCC1)C2", "0.1 to 0.5 µM"],
  ["CCc1nn(C[C@@H](C)COC(=O)c2cccc(C(=O)NC)c2)c2c1C(=O)NCC1(CCOCC1)C2", "< 0.1 µM"],
  ["CCc1nn(CCCCOC(=O)c2ccc(S(=O)(=O)N3CCCC3)cc2)c2c1C(=O)NCC1(CCOCC1)C2", "0.1 to 0.5 µM"],
  ["CCc1nn(C[C@@H](C)COC(=O)c2cccc(C(=O)N3CCOCC3)c2)c2c1C(=O)NCC1(CCOCC1)C2", "< 0.1 µM"],
  ["CCc1nn(CC(C)(C)COC(=O)c2cccc(C(F)(F)F)c2)c2c1C(=O)NCC1(CCOCC1)C2", "< 0.1 µM"],
  ["CCc1nn(C[C@@H](C)COC(=O)c2cccc(C(N)=O)c2)c2c1C(=O)NCC1(CCOCC1)C2", "< 0.1 µM"],
  ["CCc1nn(CC(C)(C)COC(=O)c2ccc(C(=O)N3CCCCC3)cc2)c2c1C(=O)NCC1(CCOCC1)C2", "< 0.1 µM"],
  ["CCc1nn(CC(C)(C)COC(=O)c2cccc(S(=O)(=O)N3CCOCC3)c2)c2c1C(=O)NCC1(CCOCC1)C2", "< 0.1 µM"],
  ["CCc1nn(CCCCOC(=O)c2ccc(S(C)(=O)=O)cc2)c2c1C(=O)NCC1(CCOCC1)C2", "0.1 to 0.5 µM"],
  ["CCc1nn(CC(C)(C)COC(=O)c2cccc(C(=O)NC(C)C)c2)c2c1C(=O)NCC1(CCOCC1)C2", "< 0.1 µM"],
  ["CCc1nn(CC(C)(C)COC(=O)c2ccc(C(=O)N3CCCC3)cc2)c2c1C(=O)NCC1(CCOCC1)C2", "< 0.1 µM"],
  ["CCOc1cccc(C(=O)OCC(C)(C)Cn2nc(CC)c3c2CC2(CCOCC2)CNC3=O)c1", "< 0.1 µM"]
]}
